- target desc: Apoptotic protease-activating factor 1 (Homo sapiens) (UniProt O14727)
- Sequence (O14727 whole entry, looked up): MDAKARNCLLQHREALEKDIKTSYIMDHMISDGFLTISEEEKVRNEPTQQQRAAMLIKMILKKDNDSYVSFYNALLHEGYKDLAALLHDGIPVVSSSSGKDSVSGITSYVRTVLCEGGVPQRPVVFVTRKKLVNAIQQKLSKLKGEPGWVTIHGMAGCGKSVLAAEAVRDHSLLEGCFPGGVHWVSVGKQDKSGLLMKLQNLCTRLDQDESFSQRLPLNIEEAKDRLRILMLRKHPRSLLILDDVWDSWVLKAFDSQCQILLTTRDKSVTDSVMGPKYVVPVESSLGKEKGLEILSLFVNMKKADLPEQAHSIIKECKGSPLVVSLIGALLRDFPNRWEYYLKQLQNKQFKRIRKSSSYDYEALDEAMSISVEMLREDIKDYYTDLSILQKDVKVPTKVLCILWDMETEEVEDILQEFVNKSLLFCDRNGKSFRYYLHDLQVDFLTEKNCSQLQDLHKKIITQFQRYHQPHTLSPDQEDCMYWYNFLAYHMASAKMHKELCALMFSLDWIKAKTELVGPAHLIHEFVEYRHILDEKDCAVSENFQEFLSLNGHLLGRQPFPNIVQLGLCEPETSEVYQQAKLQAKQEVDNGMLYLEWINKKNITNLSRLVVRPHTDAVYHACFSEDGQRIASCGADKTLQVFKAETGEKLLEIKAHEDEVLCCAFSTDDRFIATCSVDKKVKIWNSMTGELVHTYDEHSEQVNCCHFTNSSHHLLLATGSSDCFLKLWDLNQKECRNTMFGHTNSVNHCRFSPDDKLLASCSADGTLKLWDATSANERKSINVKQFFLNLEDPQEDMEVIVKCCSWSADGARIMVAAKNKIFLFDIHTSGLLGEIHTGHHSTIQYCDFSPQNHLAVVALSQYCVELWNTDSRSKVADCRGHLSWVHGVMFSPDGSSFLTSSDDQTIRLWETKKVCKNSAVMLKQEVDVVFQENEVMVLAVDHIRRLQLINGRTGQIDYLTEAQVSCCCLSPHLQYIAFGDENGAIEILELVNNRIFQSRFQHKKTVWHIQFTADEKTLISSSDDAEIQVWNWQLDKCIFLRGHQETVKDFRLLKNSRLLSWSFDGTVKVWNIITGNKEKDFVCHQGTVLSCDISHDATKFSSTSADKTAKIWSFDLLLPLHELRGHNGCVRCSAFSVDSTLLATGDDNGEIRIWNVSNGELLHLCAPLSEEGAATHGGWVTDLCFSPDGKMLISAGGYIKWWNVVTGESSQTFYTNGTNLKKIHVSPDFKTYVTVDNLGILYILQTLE
- experimental protocol: blockers of Apaf-1-driven caspase-3 activation – biochemical, DEVD-Rh110 fluorescence, uHTS, primary screen (AID 489030);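 further: plate controls were DMSO wells for no effect and DEVD-CHO caspase inhibitor wells for full effect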
- test context: reconstituted apoptosome caspase-3 activity, at 20 µM
Screen size: about 330,000 compounds; about 2,400 (0.73%) were called active. How the source made its calls: active means inhibition of at least 40% at 20 µM; inactive means the rest. What follows is part of a selection rich in actives, with near analogues and random picks from the rest.
Choose the fitting class; nothing outside 1 (active), 0 (inactive) is accepted.

compound	cat
CCCCn1c(=O)c(C(=O)Nc2ccccc2Cl)c(O)c2ccccc21	0
CN(C)C(=O)Oc1ccc(NC(=O)N2CCOCC2)cc1	0
CCCCCn1c(=O)c(C(=O)NCc2ccccc2)c(O)c2ccccc21	0
COC(=O)C1=C(c2ccc(F)cc2F)C[C@@H]2CC[C@H]1N2C(=O)NC1CC1	0
CNC(=O)N(C)c1nnc(C(C)(C)C)s1	0
CC(Cc1ccccc1)NC=O (stereo unspecified)	0
CC(=C1C(=O)c2ccccc2C1=O)N1CCN(CCN=Cc2c(O)n(C)c(=O)n(C)c2=O)CC1	0
CN(C)/C=C(\C=[N+](C)C)c1[nH]ncc1[N+](=O)[O-]	0
CC(=O)NC(=O)NC(C)Cc1ccccc1 (stereo unspecified)	0
CCCCCn1c(=O)c(C(=O)Nc2c(C)n(C)n(-c3ccccc3)c2=O)c(O)c2ccccc21	1

Read the next record carefully.
Kindly provide the recorded test outcome for the following compound: COC(=O)CN1C(=O)C2(C(C(=O)OC)=C(N)Oc3ccccc32)C2=C1CC(C)(C)CC2=O (stereo unspecified)
0
